Biological target: PI3Kβ (Homo sapiens)
Construct: endogenous in cells; host or cells: PC-3 (ATCC #CRL-1435)
Assay: ELISA assay for PI3Kβ: in-cell ELISA, phosphorylation of AKT (Ser473) in PC-3 cells
Type: cell-based
Settings: ratio of cellular IC50 values, Table 2

compound: COc1cccc(CC(C)(C)Nc2nc(N3CCOCC3)nc(-n3c(C(F)F)nc4ccccc43)n2)c1
α/β ratio: A’
//
compound: CC(C)(Cc1ccccc1C1CCN(S(C)(=O)=O)CC1)Nc1nc(N2CCOCC2)nc(-n2c(C(F)F)nc3ccccc32)n1
α/β ratio: A’
//
compound: Cc1ccccc1CC(C)(C)Nc1nc(N2CCOCC2)nc(-n2c(C(F)F)nc3ccccc32)n1
α/β ratio: C’
//
compound: CC(C)(Cc1ccccc1-c1cncnc1)Nc1nc(N2CCOCC2)nc(-n2c(C(F)F)nc3ccccc32)n1
α/β ratio: A’
//
compound: CC(C)(Cc1ccc(F)cc1)Nc1nc(N2CCOCC2)nc(-n2c(C(F)F)nc3ccccc32)n1
α/β ratio: C’
//
compound: CC(C)(Cc1cccc(F)c1)Nc1nc(N2CCOCC2)nc(-n2c(C(F)F)nc3ccccc32)n1
α/β ratio: A’
//
compound: CC(=O)N1CCC(c2ccccc2CC(C)(C)Nc2nc(N3CCOCC3)nc(-n3c(C(F)F)nc4ccccc43)n2)CC1
α/β ratio: A’
//
compound: Cn1cc(-c2ccccc2CC(C)(C)Nc2nc(N3CCOCC3)nc(-n3c(C(F)F)nc4ccccc43)n2)cn1
α/β ratio: A’
//
compound: CC(C)(Cc1c(F)cccc1F)Nc1nc(N2CCOCC2)nc(-n2c(C(F)F)nc3ccccc32)n1
α/β ratio: C’
//
compound: CN1CCC(c2ccccc2CC(C)(C)Nc2nc(N3CCOCC3)nc(-n3c(C(F)F)nc4ccccc43)n2)C1 (stereo not shown)
α/β ratio: A’
//
compound: CC(C)(Cc1ccccc1)Nc1nc(N2CCOCC2)nc(-n2c(C(F)F)nc3ccccc32)n1
α/β ratio: B’
//
compound: Cc1cccc(CC(C)(C)Nc2nc(N3CCOCC3)nc(-n3c(C(F)F)nc4ccccc43)n2)c1
α/β ratio: B’
//
compound: CC(C)(Cc1ccccc1-c1cccnc1F)Nc1nc(N2CCOCC2)nc(-n2c(C(F)F)nc3ccccc32)n1
α/β ratio: A’
//
compound: CCN1CCC(c2ccccc2CC(C)(C)Nc2nc(N3CCOCC3)nc(-n3c(C(F)F)nc4ccccc43)n2)CC1
α/β ratio: A’
//
compound: CC(C)(Cc1ccccc1-c1cccc(CN2CCOCC2)c1)Nc1nc(N2CCOCC2)nc(-n2c(C(F)F)nc3ccccc32)n1
α/β ratio: A’
//
compound: CC(C)(Cc1ccccc1-c1ccccc1F)Nc1nc(N2CCOCC2)nc(-n2c(C(F)F)nc3ccccc32)n1
α/β ratio: A’

====

Biological target: PI3Kδ (Homo sapiens)
Construct: endogenous in cells; host or cells: Raji (ATCC #CCL-86)
Sequence (O00329 whole entry, one chain of several): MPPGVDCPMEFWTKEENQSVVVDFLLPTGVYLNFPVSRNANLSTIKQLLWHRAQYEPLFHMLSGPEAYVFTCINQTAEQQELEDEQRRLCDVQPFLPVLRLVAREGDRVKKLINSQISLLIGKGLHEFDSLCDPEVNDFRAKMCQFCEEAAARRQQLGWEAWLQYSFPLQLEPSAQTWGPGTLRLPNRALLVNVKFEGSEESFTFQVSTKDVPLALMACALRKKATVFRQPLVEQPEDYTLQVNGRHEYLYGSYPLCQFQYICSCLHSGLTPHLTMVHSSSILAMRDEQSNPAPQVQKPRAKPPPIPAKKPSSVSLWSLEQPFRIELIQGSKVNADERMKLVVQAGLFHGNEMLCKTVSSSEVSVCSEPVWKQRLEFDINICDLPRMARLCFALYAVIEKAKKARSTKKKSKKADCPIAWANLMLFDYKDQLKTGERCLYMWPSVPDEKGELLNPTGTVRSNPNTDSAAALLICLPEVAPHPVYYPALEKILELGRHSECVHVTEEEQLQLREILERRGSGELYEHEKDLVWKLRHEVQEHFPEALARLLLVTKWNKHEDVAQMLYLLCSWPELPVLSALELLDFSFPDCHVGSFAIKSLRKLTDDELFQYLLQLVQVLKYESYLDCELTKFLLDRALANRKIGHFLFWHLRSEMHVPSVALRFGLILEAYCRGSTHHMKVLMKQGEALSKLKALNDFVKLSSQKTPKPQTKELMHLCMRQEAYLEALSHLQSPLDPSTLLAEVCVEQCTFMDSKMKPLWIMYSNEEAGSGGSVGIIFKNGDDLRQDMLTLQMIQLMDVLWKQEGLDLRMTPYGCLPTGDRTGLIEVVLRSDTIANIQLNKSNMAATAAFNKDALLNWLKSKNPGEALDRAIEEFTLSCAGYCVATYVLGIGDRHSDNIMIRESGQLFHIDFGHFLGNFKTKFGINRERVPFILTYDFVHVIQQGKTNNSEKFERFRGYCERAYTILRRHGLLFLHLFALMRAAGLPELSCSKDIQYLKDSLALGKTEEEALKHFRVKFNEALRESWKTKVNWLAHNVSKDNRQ
Assay: ELISA assay for PI3Kδ: sandwich ELISA, phosphorylation of AKT (Thr308) in Raji cells
Format: cell-based
Conditions: ratio of cellular IC50 values, Table 2

smiles_data: CC(C)(Cc1ccccc1)Nc1nc(N2CCOCC2)nc(-n2c(C(F)F)nc3ccccc32)n1
β/δ ratio: A’
//
smiles_data: Cn1nccc1-c1ccccc1CC(C)(C)Nc1nc(N2CCOCC2)nc(-n2c(C(F)F)nc3ccccc32)n1
β/δ ratio: B’
//
smiles_data: CC(C)(Cc1ccccc1-c1cn[nH]c1)Nc1nc(N2CCOCC2)nc(-n2c(C(F)F)nc3ccccc32)n1
β/δ ratio: A’
//
smiles_data: CN1CCN(c2cc(-c3ccccc3CC(C)(C)Nc3nc(N4CCOCC4)nc(-n4c(C(F)F)nc5ccccc54)n3)ccn2)CC1
β/δ ratio: A’
//
smiles_data: CC(C)(Cc1ccccc1-c1ccccc1Cl)Nc1nc(N2CCOCC2)nc(-n2c(C(F)F)nc3ccccc32)n1
β/δ ratio: A’

====

Measured IC50 on UniProt:P42338 follows.
property_label: IC50

smiles_data: Cc1ccccc1-c1ccccc1CC(C)(C)Nc1nc(N2CCOCC2)nc(-n2c(C(F)F)nc3ccccc32)n1
property_label: IC50
measured_result: ≤ 100 nM

smiles_data: CC(C)(Cc1ccc(Cl)cc1)Nc1nc(N2CCOCC2)nc(-n2c(C(F)F)nc3ccccc32)n1
property_label: IC50
measured_result: 200 to 500 nM

smiles_data: CN1CCC(c2ccccc2CC(C)(C)Nc2nc(N3CCOCC3)nc(-n3c(C(F)F)nc4ccccc43)n2)CC1
property_label: IC50
measured_result: 200 to 500 nM

smiles_data: COc1cc(-c2ccccc2CC(C)(C)Nc2nc(N3CCOCC3)nc(-n3c(C(F)F)nc4ccccc43)n2)ccn1
property_label: IC50
measured_result: > 500 nM

smiles_data: CC(C)N1CCC(c2ccccc2CC(C)(C)Nc2nc(N3CCOCC3)nc(-n3c(C(F)F)nc4ccccc43)n2)CC1
property_label: IC50
measured_result: > 500 nM

smiles_data: Cc1ccccc1CC(C)(C)Nc1nc(N2CCOCC2)nc(-n2c(C(F)F)nc3ccccc32)n1
property_label: IC50
measured_result: ≤ 100 nM

smiles_data: CC(C)(Cc1ccccc1F)Nc1nc(N2CCOCC2)nc(-n2c(C(F)F)nc3ccccc32)n1
property_label: IC50
measured_result: 100 to 200 nM

====

Molecular target: PI3K delta (Homo sapiens)
Construct: purchased Millipore, Billerica, MA, USA
Sequence (O00329 whole entry, species assumed, one chain of several): as the sequence (O00329 whole entry, one chain of several) above
Assay: Luciferase-based luminescence assay (KinaseGlo), PI3K delta enzymatic activity
Assay type: biochemical
Conditions: ratio of enzymatic IC50 values, Table 1

compound: CN1CCC(c2ccccc2CC(C)(C)Nc2nc(N3CCOCC3)nc(-n3c(C(F)F)nc4ccccc43)n2)CC1
β/δ ratio: A’
--
compound: CN(C)CCCc1ccccc1CC(C)(C)Nc1nc(N2CCOCC2)nc(-n2c(C(F)F)nc3ccccc32)n1
β/δ ratio: A’
--
compound: CC(C)(Cc1ccccc1C1CCNC1)Nc1nc(N2CCOCC2)nc(-n2c(C(F)F)nc3ccccc32)n1 (stereo not drawn)
β/δ ratio: A’
--
compound: CC(C)(Cc1ccc2ccccc2c1)Nc1nc(N2CCOCC2)nc(-n2c(C(F)F)nc3ccccc32)n1
β/δ ratio: D’
--
compound: COc1ccccc1CC(C)(C)Nc1nc(N2CCOCC2)nc(-n2c(C(F)F)nc3ccccc32)n1
β/δ ratio: B’
--
compound: Cc1ccccc1CC(C)(C)Nc1nc(N2CCOCC2)nc(-n2c(C(F)F)nc3ccccc32)n1
β/δ ratio: D’
--
compound: CC(C)(Cc1ccc(Br)cc1)Nc1nc(N2CCOCC2)nc(-n2c(C(F)F)nc3ccccc32)n1
β/δ ratio: C’
--
compound: Cc1cccc(CC(C)(C)Nc2nc(N3CCOCC3)nc(-n3c(C(F)F)nc4ccccc43)n2)c1
β/δ ratio: D’
--
compound: COc1ccc(-c2ccccc2CC(C)(C)Nc2nc(N3CCOCC3)nc(-n3c(C(F)F)nc4ccccc43)n2)cc1
β/δ ratio: B’
--
compound: CC(C)(Cc1ccccc1-c1cccnc1)Nc1nc(N2CCOCC2)nc(-n2c(C(F)F)nc3ccccc32)n1
β/δ ratio: D’
--
compound: CC[C@H](Nc1nc(N2CCOCC2)nc(-n2c(C(F)F)nc3ccccc32)n1)c1ccccc1
β/δ ratio: C’
--
compound: CC(C)(Cc1ccccc1-c1cccc(CN2CCOCC2)c1)Nc1nc(N2CCOCC2)nc(-n2c(C(F)F)nc3ccccc32)n1
β/δ ratio: D’
--
compound: CC(C)(Cc1ccccc1-c1cn[nH]c1)Nc1nc(N2CCOCC2)nc(-n2c(C(F)F)nc3ccccc32)n1
β/δ ratio: D’
--
compound: Cn1cc(-c2ccccc2CC(C)(C)Nc2nc(N3CCOCC3)nc(-n3c(C(F)F)nc4ccccc43)n2)cn1
β/δ ratio: D’
--
compound: COc1ccc(CC(C)(C)Nc2nc(N3CCOCC3)nc(-n3c(C(F)F)nc4ccccc43)n2)cc1
β/δ ratio: A’
--
compound: CC(C)(Cc1ccc(Cl)cc1)Nc1nc(N2CCOCC2)nc(-n2c(C(F)F)nc3ccccc32)n1
β/δ ratio: D’
--
compound: Cc1ccccc1-c1ccccc1CC(C)(C)Nc1nc(N2CCOCC2)nc(-n2c(C(F)F)nc3ccccc32)n1
β/δ ratio: D’
--
compound: CC(C)(Nc1nc(N2CCOCC2)nc(-n2c(C(F)F)nc3ccccc32)n1)c1ccccc1
β/δ ratio: A’
--
compound: COc1cccc(CC(C)(C)Nc2nc(N3CCOCC3)nc(-n3c(C(F)F)nc4ccccc43)n2)c1
β/δ ratio: B’
--
compound: CC(C)(Cc1ccc(F)cc1F)Nc1nc(N2CCOCC2)nc(-n2c(C(F)F)nc3ccccc32)n1
β/δ ratio: B’
--
compound: CC(C)(CNc1nc(N2CCOCC2)nc(-n2c(C(F)F)nc3ccccc32)n1)c1ccccc1
β/δ ratio: A’

====

Biological target: PI3Kβ (Homo sapiens, UniProt P42338)
Construct: endogenous in cells
Sequence (P42338 whole entry): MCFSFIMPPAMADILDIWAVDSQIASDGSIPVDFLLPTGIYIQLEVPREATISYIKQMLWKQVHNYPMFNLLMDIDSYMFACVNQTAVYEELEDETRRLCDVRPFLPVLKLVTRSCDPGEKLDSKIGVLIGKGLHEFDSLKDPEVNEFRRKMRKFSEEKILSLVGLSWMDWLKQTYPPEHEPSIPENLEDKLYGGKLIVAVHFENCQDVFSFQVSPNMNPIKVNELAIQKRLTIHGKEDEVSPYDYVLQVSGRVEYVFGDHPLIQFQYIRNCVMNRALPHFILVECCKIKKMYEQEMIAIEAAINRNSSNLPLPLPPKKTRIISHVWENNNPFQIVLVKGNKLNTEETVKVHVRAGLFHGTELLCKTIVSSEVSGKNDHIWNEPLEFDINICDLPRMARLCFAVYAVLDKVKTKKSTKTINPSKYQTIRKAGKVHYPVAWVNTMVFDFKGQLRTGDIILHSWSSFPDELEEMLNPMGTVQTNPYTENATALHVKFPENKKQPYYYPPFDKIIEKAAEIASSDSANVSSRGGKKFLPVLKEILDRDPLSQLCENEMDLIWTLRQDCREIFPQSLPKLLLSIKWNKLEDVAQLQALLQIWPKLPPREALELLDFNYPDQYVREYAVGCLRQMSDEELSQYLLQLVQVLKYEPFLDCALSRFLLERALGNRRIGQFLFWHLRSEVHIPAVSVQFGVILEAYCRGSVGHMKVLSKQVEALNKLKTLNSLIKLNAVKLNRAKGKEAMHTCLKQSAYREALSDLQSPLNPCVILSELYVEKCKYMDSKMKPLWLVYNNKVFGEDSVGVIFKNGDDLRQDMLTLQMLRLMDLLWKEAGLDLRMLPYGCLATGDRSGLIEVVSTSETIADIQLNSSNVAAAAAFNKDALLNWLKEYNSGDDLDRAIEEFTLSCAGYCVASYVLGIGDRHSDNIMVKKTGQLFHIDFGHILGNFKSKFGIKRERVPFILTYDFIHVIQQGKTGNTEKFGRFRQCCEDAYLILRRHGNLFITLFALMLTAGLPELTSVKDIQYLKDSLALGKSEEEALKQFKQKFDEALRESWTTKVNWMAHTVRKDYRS
Sequence (P27986 whole entry partner): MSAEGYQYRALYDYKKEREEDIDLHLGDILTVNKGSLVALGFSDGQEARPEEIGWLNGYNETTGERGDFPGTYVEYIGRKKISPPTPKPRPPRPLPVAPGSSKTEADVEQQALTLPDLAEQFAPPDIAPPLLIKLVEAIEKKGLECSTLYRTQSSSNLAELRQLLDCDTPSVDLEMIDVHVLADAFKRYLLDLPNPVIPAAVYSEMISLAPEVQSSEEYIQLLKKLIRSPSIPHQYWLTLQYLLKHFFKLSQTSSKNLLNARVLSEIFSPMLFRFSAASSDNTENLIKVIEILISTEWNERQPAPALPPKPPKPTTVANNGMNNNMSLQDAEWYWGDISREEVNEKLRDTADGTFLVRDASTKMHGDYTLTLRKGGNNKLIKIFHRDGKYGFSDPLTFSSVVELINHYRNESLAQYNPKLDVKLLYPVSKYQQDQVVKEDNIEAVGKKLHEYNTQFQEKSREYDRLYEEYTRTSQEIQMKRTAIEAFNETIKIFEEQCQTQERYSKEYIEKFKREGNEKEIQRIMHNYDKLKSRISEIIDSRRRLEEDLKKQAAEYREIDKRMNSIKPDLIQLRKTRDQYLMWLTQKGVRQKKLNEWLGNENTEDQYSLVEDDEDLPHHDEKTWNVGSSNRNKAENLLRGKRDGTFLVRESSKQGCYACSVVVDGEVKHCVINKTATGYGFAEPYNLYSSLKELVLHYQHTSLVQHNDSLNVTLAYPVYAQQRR
Experiment: ELISA assay for PI3Kβ: in-cell ELISA, phosphorylation of AKT (Ser473) in PC-3 cells
Settings: cellular, pAKT (Ser473), PC-3 cells, LPA stimulation; read-out: IC50 p110β
Description: Cellular PI3Kβ activity was determined by measuring the phosphorylation of AKT (Ser473) using an in-cell ELISA assay. PC-3 (prostate carcinoma) cells were obtained from ATCC (ATCC #CRL-1435). […] PC-3 cells were subcultured in growth medium and seeded into flat, clear bottom, 96-well plates (Corning #3904) at 16000 cells/well, then incubated overnight in a 37° C., 5% CO2 incubator. […] Images quantified using Licor Odyssey application software. […]
pIC50: −log10 of the molar value.

smiles_data: COc1cc(CC(C)(C)Nc2nc(N3CCOCC3)nc(-n3c(C(F)F)nc4ccccc43)n2)ccc1F
pIC50: ≥ 7.00

smiles_data: CC(C)(Cc1ccccc1)Nc1nc(N2CCOCC2)nc(-n2c(C(F)F)nc3ccccc32)n1
pIC50: ≥ 7.00

smiles_data: COc1cccc(CC(C)(C)Nc2nc(N3CCOCC3)nc(-n3c(C(F)F)nc4ccccc43)n2)c1
pIC50: 6.70 to 7.00

smiles_data: CC(C)(Cc1ccccc1-c1cn[nH]c1)Nc1nc(N2CCOCC2)nc(-n2c(C(F)F)nc3ccccc32)n1
pIC50: ≥ 7.00

smiles_data: Cc1ccccc1-c1ccccc1CC(C)(C)Nc1nc(N2CCOCC2)nc(-n2c(C(F)F)nc3ccccc32)n1
pIC50: 6.30 to 6.70

smiles_data: CC(C)(Cc1ccccc1Cl)Nc1nc(N2CCOCC2)nc(-n2c(C(F)F)nc3ccccc32)n1
pIC50: ≥ 7.00

smiles_data: CC(C)(Cc1ccccc1-c1cccnc1)Nc1nc(N2CCOCC2)nc(-n2c(C(F)F)nc3ccccc32)n1
pIC50: ≥ 7.00

smiles_data: CC(C)(Cc1ccccc1C1CCNCC1)Nc1nc(N2CCOCC2)nc(-n2c(C(F)F)nc3ccccc32)n1
pIC50: ≥ 7.00

smiles_data: CC(C)(Cc1ccccc1-c1cncnc1)Nc1nc(N2CCOCC2)nc(-n2c(C(F)F)nc3ccccc32)n1
pIC50: ≥ 7.00

smiles_data: CN1CCN(c2cc(-c3ccccc3CC(C)(C)Nc3nc(N4CCOCC4)nc(-n4c(C(F)F)nc5ccccc54)n3)ccn2)CC1
pIC50: ≥ 7.00

smiles_data: CC(C)(Cc1ccccc1-c1ccccc1F)Nc1nc(N2CCOCC2)nc(-n2c(C(F)F)nc3ccccc32)n1
pIC50: 6.70 to 7.00

smiles_data: CC(C)(Cc1c(F)cccc1F)Nc1nc(N2CCOCC2)nc(-n2c(C(F)F)nc3ccccc32)n1
pIC50: ≥ 7.00

smiles_data: CN(C)CCCc1ccccc1CC(C)(C)Nc1nc(N2CCOCC2)nc(-n2c(C(F)F)nc3ccccc32)n1
pIC50: ≥ 7.00

Taken from patent US12059422B2.
